# Experiment: Photodecomposition of Al and Si phthalocyanines in toluene in the presence of squalene under white light
# Assay type: physicochemical
# Test context: time 6 h, radiation 258 kJ/mol × 10^−6; toluene ~9 μM, squalene 1:1000 mole ratio, white light 1.2 kJ/s/m^2, air
Outcome measure: decomp (%)

INSERT INTO measurements (compound, outcome_measure, unit_label, measured_value) VALUES
  ('C[Si](C)(C)O[Si]1(O[Si](C)(C)C)n2c3c4ccccc4c2N=C2N=C(N=c4c5ccccc5c(n41)=NC1=NC(=N3)c3ccccc31)c1ccccc12', 'decomp (%)', '%', 27),
  ('CC[Si](CC)(CC)O[Si]1(O[Si](CC)(CC)CC)n2c3c4ccccc4c2N=C2N=C(N=c4c5ccccc5c(n41)=NC1=NC(=N3)c3ccccc31)c1ccccc12', 'decomp (%)', '%', 13),
  ('CN(C)CCC[Si](C)(C)O[Si]1(O)n2c3c4ccccc4c2N=C2N=C(N=c4c5ccccc5c(n41)=NC1=NC(=N3)c3ccccc31)c1ccccc12 (stereo not drawn)', 'decomp (%)', '%', 92);
